Biological target: ZmALDH12 (Zea mays, UniProt A0A2H4PMI3, C330A)
Test: microscale thermophoresis
MEASUREMENT_LABEL: Kd (µM)
The reply should contain only the number, in µM.

[Q] Record NC(CCC=O)C(=O)O (racemic) : what is its Kd with ZmALDH12 (Zea mays, UniProt A0A2H4PMI3, C330A)?
[A] 315

---

Target: UniProt A0A2H4PMI3
Test: microscale thermophoresis, label-free
Format: binding
MEASUREMENT_LABEL: Kd (mM)
The reply should contain only the number, in mM.

[Q] Which Kd is reported for this compound? N[C@@H](CCC(=O)O)C(=O)O [glutamate]
[A] 3.1

Cited source for all entries: paper PMC6365017
